As shown below, each of these binders has a reported hPTHR-2 EC50 (nM), luciferase reporter gene assay value.
Molecular target: human parathyroid hormone receptor 2 (human, UniProt P49190)
Test: cell-based or functional assay
Starred links: 1 amine or outer side, 2 acyl side, 3 side chain; linkers in the order of their positions; H or OH if unused. Non-standard residues stand in square brackets, D forms with d. No end group written: not given here. hSer(OMe) = COCC[C@H](N[*:1])C(=O)[*:2]; 1Nal = N[C@@H](Cc1cccc2ccccc12)C(=O)O; β3hI = CC[C@H](C)[C@H](N)CC(=O)O; Nle = CCCC[C@H](N)C(=O)O; Aib = CC(C)(N)C(=O)O; βAla = NCCC(=O)O
reported.property: hPTHR-2 EC50 (nM), luciferase reporter gene assay

[
  {
    "binder": "[Aib]VSEIQL[Nle]HNLGKHLN[βAla][hSer(OMe)]ERVE[1Nal]LRKLLQDVHNF-NH2 [[Aib^1, Nle^8, β-Ala^17, hSer(OMe)^18, 1-Nal^23, Leu^27] hPTH (1-34)-NH2]",
    "assay.result": "49 nM"
  },
  {
    "binder": "[Aib]VSEIQL[Nle]HSLGKHLKS[β3hI]ERVE[1Nal]LRKLLQRVHEE-NH2 [[Aib^1, Nle^8, Ser^10, Lys^16, β-hIle^18, 1-Nal^23, Leu^27, Arg^30, Glu^33, Glu^34] hPTH (1-34)-NH2]",
    "assay.result": "4 nM"
  },
  {
    "binder": "SVSEIQL[Nle]HNLGKHLNS[β3hI]ERVE[1Nal]LRKLLQDV-NH2 [[Nle^8, β-hIle^18, 1-Nal^23, Leu^27] hPTH-(1-31)-NH2]",
    "assay.result": "32 nM"
  }
]

Values from patent US20110195900A1
